Target: T1, human TL1A extracellular domain with N-terminal HIS and FLAG tag (human) (UniProt O95150)
T1 sequence: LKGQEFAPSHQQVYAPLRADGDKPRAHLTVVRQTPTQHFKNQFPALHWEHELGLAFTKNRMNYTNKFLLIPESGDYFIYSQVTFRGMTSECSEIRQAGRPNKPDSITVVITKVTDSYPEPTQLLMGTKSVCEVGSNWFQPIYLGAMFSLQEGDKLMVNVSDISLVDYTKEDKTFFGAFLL
Assay: cell-based or functional assay
observed-property: Antibody IC50, TL1A induced caspase potency assay in TF-1 cells (µg/mL)

>  <binder>
320-213 (antibody, human IgG1, name in Kabat numbering, V domains shown, human IgG1, lambda) VH: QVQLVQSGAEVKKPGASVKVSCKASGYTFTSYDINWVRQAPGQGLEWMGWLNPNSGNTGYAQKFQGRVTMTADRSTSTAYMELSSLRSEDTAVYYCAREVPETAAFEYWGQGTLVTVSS VL: QSVLTQPPSVSGAPGQRVTISCTSKSSDIGAGLGVHWYQQLPGTAPKLLIEGYYNRPSGVPDRFSGSKSGTSASLTITGLLPEDEGDYYCQSYDGTLSALFGGGTKLTVLG

>  <reading-unit>
µg/mL

>  <measured-value>
0.07

$$$$
>  <binder>
320-207 (antibody, human IgG1, name in Kabat numbering, V domains shown, human IgG1, lambda) VH: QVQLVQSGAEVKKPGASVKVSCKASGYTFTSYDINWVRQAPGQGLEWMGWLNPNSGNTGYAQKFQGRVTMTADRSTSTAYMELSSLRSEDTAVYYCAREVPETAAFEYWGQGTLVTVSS VL: QSVLTQPPSVSGAPGQRVTISCTWSSSDIGAGLGVHWYQQLPGTAPKLLIEGYYNRPSGVPDRFSGSKSGTSASLTITGLLPEDEGDYYCQSYDGTLSALFGGGTKLTVLG

>  <reading-unit>
µg/mL

>  <measured-value>
0.007

$$$$
>  <binder>
320-211 (antibody, human IgG1, name in Kabat numbering, V domains shown, human IgG1, lambda) VH: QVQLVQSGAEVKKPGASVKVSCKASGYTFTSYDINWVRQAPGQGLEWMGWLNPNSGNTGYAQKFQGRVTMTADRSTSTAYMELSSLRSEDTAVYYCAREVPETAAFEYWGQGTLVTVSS VL: QSVLTQPPSVSGAPGQRVTISCTSDSSDIGAGLGVHWYQQLPGTAPKLLIEGYYNRPSGVPDRFSGSKSGTSASLTITGLLPEDEGDYYCQSYDGTLSALFGGGTKLTVLG

>  <reading-unit>
µg/mL

>  <measured-value>
0.01

$$$$
